Test system: SW-620 colon
Test: NCI-60 one-dose screen, 48 h (100 = growth as untreated, 0 = no growth, -100 = all killed)
Details: 10 µM unless noted
Method: Growth inhibition of the SW-620 human tumor cell line is measured as a screen for anti-cancer activity. Cells are grown in 96 well plates and exposed to the test compound for 48 hours. Compounds are tested at a single concentration, which is 10^-5 M for most compounds. The reported endpoint is percent growth (GI% or GIPRCNT), where numbers from 0 - 100% represent growth inhibition, and numbers from -100% - 0 represent cell death. For example, a value of 40 represents 60% growth inhibition. […]
About 83,000 compounds went through this panel and 20% of them were active in at least one assay; those are over-represented in the sample as a whole.
Measured growth determines class: low (below 20%), mid (20% to below 80%), high (80% or more)

Hey, which category is "C/C(=N/NC(N)=S)c1ccc(C)cc1" in, do you know?
mid

Hey, which category is COc1cc(NCc2ccc3nc(N)nc(N)c3c2C)cc(OC)c1OC (tested in a mixture with another compound) in, do you know?
mid

Hey, which category is "CN(C)c1ccc(/C=C/c2cc[n+](C)c(/C=C/c3ccc(N(C)C)cc3)c2)cc1" in, do you know?
low

Hey, which category is N#CC1c2ccccc2C=CN1C(=O)CCCl (stereo unspecified) in, do you know?
mid

Hey, which category is "O=[n+]1c2ccccc2n([O-])c2cc(Cl)ccc21" in, do you know?
mid

Hey, which category is "O=[N+]([O-])c1ccc2c(c1)Cc1ccccc1-2" in, do you know?
high

Hey, which category is "O=C1C=CC(=O)c2c(O)c(CO)c(CO)c(O)c21" in, do you know?
high

Hey, which category is "CC(C)c1ccc(C(=O)OC2CCCC2)cc1" in, do you know?
high

Hey, which category is "CC1=CC(=NC(=O)CBr)C=C/C1=N\S(=O)(=O)c1ccccc1" in, do you know?
low

Hey, which category is "N=C1C=C(N)C(=O)c2ccccc21" in, do you know?
low

Hey, which category is "O=[N+]([O-])c1ccc(C(Br)c2ccc([N+](=O)[O-])cc2)cc1" in, do you know?
low

###

Tested on: HS 578T breast
Experiment: NCI-60 one-dose screen, 48 h (100 = growth as untreated, 0 = no growth, -100 = all killed)
Conditions: 10 µM unless noted
Compounds without any hit were thinned out: in the full panel of roughly 83,000, 20% have a hit.
Note to self: values exactly at 70% are YES. So growth at or above 70% is YES, below is NO.

Could you tell me if the measured growth of "CCCCCCCCCCCCSC(=N)N" reaches 70% or more?
YES

Could you tell me if the measured growth of "O=C(CCl)N(c1ccccc1)c1ccccc1" reaches 70% or more?
YES

Could you tell me if the measured growth of CCCCCCCCCCCC1N=C(N)N=C(N)N1c1cccc(Br)c1 (centres undefined) reaches 70% or more?
NO

Could you tell me if the measured growth of "CCCOS(=O)(=O)c1ccccc1" reaches 70% or more?
YES

Could you tell me if the measured growth of "Cc1cc(Br)c2nsnc2c1[N+](=O)[O-]" reaches 70% or more?
NO

Could you tell me if the measured growth of "Cn1c(-c2ccccc2)c(/C=C/C2=[N+](C)c3ccccc3C2(C)C)c2ccccc21" reaches 70% or more?
NO

Could you tell me if the measured growth of CCCCC(CCc1ccc([N+](=O)[O-])cc1)(C(C)=O)C(=O)OCC (centres undefined) reaches 70% or more?
YES

Could you tell me if the measured growth of "CN(Cc1ccccc1)c1ccc(SC#N)cc1" reaches 70% or more?
YES

Could you tell me if the measured growth of "CC(C)=C1C=C2CC[C@@H]3[C@](C)(CCC[C@@]3(C)C(=O)O)[C@H]2CC1" reaches 70% or more?
YES

Could you tell me if the measured growth of "Cc1ccc(Nc2ccc(O)c3c2C(=O)c2c(O)ccc(Nc4ccc(C)cc4)c2C3=O)cc1" reaches 70% or more?
YES

Could you tell me if the measured growth of "O=C(Cc1nc2cc(Cl)c(Cl)cc2nc1CC(=O)c1ccccc1)c1ccccc1" reaches 70% or more?
NO

Could you tell me if the measured growth of "OCCOSCCO" reaches 70% or more?
YES

Could you tell me if the measured growth of "CCOC(=O)c1cc(CC)sc1NC(=O)CC(C)=O" reaches 70% or more?
NO

Could you tell me if the measured growth of CCCCCCCCCCCC[n+]1ccccc1 (tested in a mixture with another compound) reaches 70% or more?
NO

Could you tell me if the measured growth of "Cc1nc([N+](=O)[O-])c(Sc2nncc(-c3ccccc3)n2)n1C" reaches 70% or more?
YES

Could you tell me if the measured growth of OC(CSc1ccccc1)CN1CCN(c2ccc(Cl)cc2)CC1 (centres undefined) reaches 70% or more?
YES

Could you tell me if the measured growth of "Cn1ccc(=Nc2ccc(NC(=O)c3ccc(N=c4ccn(C)c5ccc([N+](=O)[O-])cc45)cc3)cc2)cc1" reaches 70% or more?
YES

Could you tell me if the measured growth of "COc1cc2c(c(OC)c1OC)-c1ccc(NCc3ccccc3)c(=O)cc1[C@@H](NC(C)=O)CC2" reaches 70% or more?
NO

Could you tell me if the measured growth of "CC(=O)c1ccc2c(c1)CCc1ccccc1-2" reaches 70% or more?
YES

Could you tell me if the measured growth of "Clc1ccc(-n2ncc3c(NCCCN4CCOCC4)ncnc32)cc1" reaches 70% or more?
YES

Could you tell me if the measured growth of "Oc1ccc(Cl)cc1Cc1cc(Cl)ccc1O" reaches 70% or more?
NO

Could you tell me if the measured growth of "O=C1c2ccccc2C(=O)c2c(O)c(Cl)cc(O)c21" reaches 70% or more?
YES

Could you tell me if the measured growth of "CCc1cnc2ccccc2c1/C=C/c1ccc(N(C)C)cc1" reaches 70% or more?
NO
